So I've got pKi readings for MgCA (Malassezia globosa, UniProt A8Q1N3), take a look.
API: returns pKi as number; meaning -log10 of concentration in mol/L.

Some solved entries appear below for comparison.
CC(=O)c1c(O)c(C)c(O)c2c1OC1=CC(=O)C(=C(C)Nc3cc(S(N)(=O)=O)ccc3O)C(=O)[C@@]12C [Compound 4b]
5.60
COc1cc(C(CC(=O)NCCS(N)(=O)=O)C2C(=O)C[C@@H](C)[C@]3(Oc4c(Cl)c(OC)cc(OC)c4C3=O)C2=O)ccc1O (stereo partly shown) [Compound 1g]
5.50
COc1cc(OC)c2c(c1Cl)O[C@@]1(C(=O)/C(=C\NCc3ccc(S(N)(=O)=O)cc3)C(=O)C[C@H]1C)C2=O [Compound 1e]
5.74

Here is another compound to look at.
Request: Return value of pKi for input COc1cc(OC)c2c(c1Cl)OC1(C(=O)C=C(NCc3ccc(S(N)(=O)=O)cc3)CC1C)C2=O (stereo not shown) [Compound 1c] , no commentary.
Response: 6.25
